# Assayed target: Glucocorticoid receptor (Homo sapiens)
# Sequence (P04150 whole entry): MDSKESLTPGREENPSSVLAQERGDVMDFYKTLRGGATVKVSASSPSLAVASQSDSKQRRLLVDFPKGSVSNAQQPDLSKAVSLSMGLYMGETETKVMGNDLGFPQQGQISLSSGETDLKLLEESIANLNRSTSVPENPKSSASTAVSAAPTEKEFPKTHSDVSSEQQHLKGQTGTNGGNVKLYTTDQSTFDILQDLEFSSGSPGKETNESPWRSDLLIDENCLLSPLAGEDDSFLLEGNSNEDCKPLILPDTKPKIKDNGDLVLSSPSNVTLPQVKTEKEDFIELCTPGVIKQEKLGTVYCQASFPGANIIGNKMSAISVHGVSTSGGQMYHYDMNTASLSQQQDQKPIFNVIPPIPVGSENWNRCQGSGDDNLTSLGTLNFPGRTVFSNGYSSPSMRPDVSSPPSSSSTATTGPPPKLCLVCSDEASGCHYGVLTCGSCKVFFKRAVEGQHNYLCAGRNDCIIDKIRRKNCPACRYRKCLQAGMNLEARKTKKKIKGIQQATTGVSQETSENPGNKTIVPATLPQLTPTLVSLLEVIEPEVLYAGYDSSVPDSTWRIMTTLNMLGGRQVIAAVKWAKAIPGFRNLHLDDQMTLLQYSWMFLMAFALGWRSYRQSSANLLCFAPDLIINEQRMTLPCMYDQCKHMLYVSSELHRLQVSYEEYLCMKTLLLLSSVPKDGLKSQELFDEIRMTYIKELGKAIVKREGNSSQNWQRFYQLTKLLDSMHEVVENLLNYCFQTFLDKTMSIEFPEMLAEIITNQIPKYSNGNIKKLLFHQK
# Test method notes: Antagonist activity at glucocorticoid receptor (unknown origin) transfected in human HeLa cells assessed as inhibition of dexamethasone-induced transactivation of receptor incubated for 18 hrs by firefly luciferase assay
# Type: cell-based
pIC50: −log10 of the molar value.
Below, each entry is listed alongside its reported pIC50.
Value type: pIC50

Molecule smiles | Relation qualifier | Recorded value
O=C(c1ccco1)N1CCCc2cc(NS(=O)(=O)CCc3ccccc3)ccc21 | < | 5.00
COc1cc(C)c(Cl)cc1S(=O)(=O)Nc1ccc2c(c1)CCCN2C(=O)N(C)C | = | 4.56
COc1cc(C)c(Cl)cc1S(=O)(=O)Nc1ccc2c(c1)CCCN2C(=O)c1ccccc1 | = | 4.72
COc1cc(C)c(Cl)cc1S(=O)(=O)Nc1ccc2c(c1)CCCN2C(C)=O | = | 4.92
COc1cc(C)c(Cl)cc1S(=O)(=O)Nc1ccc2c(c1)CCCN2C(=O)c1ccc(F)cc1 | = | 4.85
